Recorded EC50 by entry
target: Olfr73 Y260F (Mus musculus, UniProt Q920P2, Y260F); construct: Rho (rhodopsin) tag; Myc; expressed in transfected cells; host or cells: Hana 3A cells; assay: cAMP reporter gene (SEAP) assay, Olfr73 Y260F in Hana3A cells; format: cell-based; settings: dash in Table 1 = no measurable response, read-out: EC50 Olfr73 Y260F

C/C=C/c1ccc(OC)c(OC)c1: > 100 µM

Please examine the following record next.
Query EC50 for COC(=O)c1ccc(O)c(OC)c1 [Methyl vanillate, methyl vanillate] > 100 µM

---

Target: Olfr73 S113A (Mus musculus, UniProt Q920P2, S113A)
Construct: Rho (rhodopsin) tag; expressed in transfected cells; host or cells: Hana 3A cells
Sequence (Q920P2 1-313 S113A): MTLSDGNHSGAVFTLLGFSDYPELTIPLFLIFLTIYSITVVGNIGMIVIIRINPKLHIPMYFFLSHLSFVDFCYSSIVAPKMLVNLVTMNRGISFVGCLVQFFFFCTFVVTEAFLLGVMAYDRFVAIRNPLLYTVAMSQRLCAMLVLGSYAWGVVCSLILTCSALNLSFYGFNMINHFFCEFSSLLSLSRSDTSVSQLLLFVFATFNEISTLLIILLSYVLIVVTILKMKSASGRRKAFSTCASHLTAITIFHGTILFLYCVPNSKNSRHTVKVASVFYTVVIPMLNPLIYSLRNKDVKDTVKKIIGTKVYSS
Assay: cAMP reporter gene (SEAP) assay, Olfr73 S113A in Hana3A cells
Format: cell-based
Conditions: read-out: EC50 Olfr73 S113A, dash in Table 1 = no measurable response
Consider the following compounds and their measured EC50 readings.

C=C(C)[C@@H]1CCC2=CC(=O)C[C@@H](C)[C@]2(C)C1: > 100 µM

Consider the additional compound presented here.
Read the entry `C/C=C/c1ccc(OC)c(OC)c1` and write its reported EC50. > 100 µM

---

Recorded EC50 for the following compounds
target: Olfr73 E208A (Mus musculus, UniProt Q920P2, E208A); construct: Rho (rhodopsin) tag; Myc; expressed in transfected cells; host or cells: Hana 3A cells; assay: cAMP reporter gene (SEAP) assay, Olfr73 E208A in Hana3A cells; assay type: cell-based; settings: EC50 Olfr73 E208A, Hana3A cells, SEAP reporter
Answer in µM, number only, no unit symbol.

Here's what some known entries look like.
C/C=C/c1ccc(OC)c(OC)c1 [MIEG, methyl isoeugenol]: 10
CCC=CCC1=C(C)CCC1=O [Jasmone]: 66

Note: attention shifts to another entry.
Output EC50 of C=C(C)[C@@H]1CCC2=CC(=O)C[C@@H](C)[C@]2(C)C1 [Nootkatone, nootkatone] 277
